Every entry's value here was drawn from paper PMC6726534.

Each entry below carries its reported MIC.
- Tested on: Salmonella enterica serovar Enteritidis MH91989
- Format: cell-based
- Condition Label: serovar Enteritidis MH91989, 1 h
Where a SMILES comes first, the peptide text is derived from it.

| Molecule | MIC |
| --- | --- |
| CC[C@H](C)[C@H](NC(=O)[C@H](CCCNC(=N)N)NC(=O)[C@@H](N)CCCNC(=N)N)C(=O)N[C@@H](CCCCN)C(=O)N[C@@H](CCCCN)C(=O)N[C@@H](CCCNC(=N)N)C(=O)N1CCC[C@H]1C(=O)N1CCC[C@H]1C(=O)N[C@@H](CCCNC(=N)N)C(=O)N[C@@H](CC(C)C)C(=O)N1CCC[C@H]1C(=O)N[C@@H](CCCNC(=N)N)C(=O)N1CCC[C@H]1C(=O)N[C@@H](CCCNC(=N)N)C(=O)N1CCC[C@H]1C(=O)N[C@@H](CCCNC(=N)N)C(=O)O [Bac_R4K/P5K] (H-RRIKKRPPRLPRPRPR-OH) | 0.120 ± 0.028 µM |
| CC(C)C[C@H](NC(=O)[C@H](CCCNC(=N)N)NC(=O)[C@@H]1CCCN1C(=O)[C@H](CCCNC(=N)N)NC(=O)[C@@H]1CCCN1C(=O)[C@@H]1CCCN1C(=O)[C@H](CCCNC(=N)N)NC(=O)[C@@H]1CCCN1C(=O)[C@H](CCC(N)=O)NC(=O)[C@@H]1CCCN1C(=O)[C@H](CCCCN)NC(=O)[C@H](Cc1ccc(O)cc1)NC(=O)[C@@H](NC(=O)[C@@H]1CCCN1C(=O)[C@H](CCCNC(=N)N)NC(=O)[C@H](CC(N)=O)NC(=O)[C@H](CC(N)=O)NC(=O)CN)C(C)C)C(=O)O [Api_I8K/H15R] (H-GNNRPVYKPQPRPPRPRL-OH) | 0.096 ± 0.023 µM |
